biological target: recombinant human PIM1 (Homo sapiens (Human), UniProt P11309); assay: PIM-1 kinase activity in cell-free in vitro assay; type: biochemical; settings: 500 nM compound, cell-free assay; read-out: PIM-1: % inh 500 nM
Sequence (P11309 whole entry): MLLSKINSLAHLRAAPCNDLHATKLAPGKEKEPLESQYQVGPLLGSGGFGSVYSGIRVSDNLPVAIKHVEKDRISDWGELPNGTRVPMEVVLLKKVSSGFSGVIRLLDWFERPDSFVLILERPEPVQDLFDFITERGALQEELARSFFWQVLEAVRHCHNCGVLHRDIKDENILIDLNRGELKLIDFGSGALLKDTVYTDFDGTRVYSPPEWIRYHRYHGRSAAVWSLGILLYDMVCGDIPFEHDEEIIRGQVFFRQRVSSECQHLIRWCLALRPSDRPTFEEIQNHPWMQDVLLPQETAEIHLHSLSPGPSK
Binary classification by inhibition at 0.5 µM, with 40% as an inclusive lower bound for Met; all other cases are Not met.

INSERT INTO measurements (molecule, classification) VALUES
  ('NCCNC(=O)c1ccc2c(c1)nc(NC1CC1)c1nc(NC3CC3)ncc12', 'Not met'),
  ('CN(C)C(=O)c1ccc2c(c1)nc(N(C)c1ccccc1)c1nc(NC3CC3)ncc12', 'Not met');

Determine whether this molecule has inhibition at 0.5 µM no lower than 40%: "Clc1ccc(Nc2nc3cc(-c4nnn[nH]4)ccc3c3cscc23)cc1"
Not met

Determine whether this molecule has inhibition at 0.5 µM no lower than 40%: "CCCNc1ncc2c(n1)c(Nc1ccccc1)nc1cc(C(=O)O)ccc12"
Not met

Determine whether this molecule has inhibition at 0.5 µM no lower than 40%: "Cc1c(-c2ccccc2)nn(C)c1Nc1nc2cc(C(=O)O)ccc2c2cnccc12"
Not met

Determine whether this molecule has inhibition at 0.5 µM no lower than 40%: O=C(O)c1ccc2c(c1)nc(N1CCOCC1)c1nc(NC3CC3)ncc12 [drawing 1627]
Not met

Determine whether this molecule has inhibition at 0.5 µM no lower than 40%: Nc1ncc2c(n1)c(NC1CC1)nc1cc(C(=O)O)ccc12 [drawing 1644]
Met

Determine whether this molecule has inhibition at 0.5 µM no lower than 40%: "C#Cc1cccc(Nc2nc3cc(C(=O)O)ccc3c3cnc(NCCCN4CCOCC4)nc23)c1"
Met

Determine whether this molecule has inhibition at 0.5 µM no lower than 40%: "COc1cccc(Nc2nc3cc(C(=O)O)ccc3c3cnc(NC4CC4)nc23)c1"
Not met
